- Target Or System: T1, human ROR1 on cells (HEK293T-hROR1, PANC-1, A549) (human, UniProt Q01973 30-937)
- T1 construct: whole, on cells; one molecule for the three cell lines; also called huROR1; cell surface ROR1
- T1 sequence (Q01973 30-937): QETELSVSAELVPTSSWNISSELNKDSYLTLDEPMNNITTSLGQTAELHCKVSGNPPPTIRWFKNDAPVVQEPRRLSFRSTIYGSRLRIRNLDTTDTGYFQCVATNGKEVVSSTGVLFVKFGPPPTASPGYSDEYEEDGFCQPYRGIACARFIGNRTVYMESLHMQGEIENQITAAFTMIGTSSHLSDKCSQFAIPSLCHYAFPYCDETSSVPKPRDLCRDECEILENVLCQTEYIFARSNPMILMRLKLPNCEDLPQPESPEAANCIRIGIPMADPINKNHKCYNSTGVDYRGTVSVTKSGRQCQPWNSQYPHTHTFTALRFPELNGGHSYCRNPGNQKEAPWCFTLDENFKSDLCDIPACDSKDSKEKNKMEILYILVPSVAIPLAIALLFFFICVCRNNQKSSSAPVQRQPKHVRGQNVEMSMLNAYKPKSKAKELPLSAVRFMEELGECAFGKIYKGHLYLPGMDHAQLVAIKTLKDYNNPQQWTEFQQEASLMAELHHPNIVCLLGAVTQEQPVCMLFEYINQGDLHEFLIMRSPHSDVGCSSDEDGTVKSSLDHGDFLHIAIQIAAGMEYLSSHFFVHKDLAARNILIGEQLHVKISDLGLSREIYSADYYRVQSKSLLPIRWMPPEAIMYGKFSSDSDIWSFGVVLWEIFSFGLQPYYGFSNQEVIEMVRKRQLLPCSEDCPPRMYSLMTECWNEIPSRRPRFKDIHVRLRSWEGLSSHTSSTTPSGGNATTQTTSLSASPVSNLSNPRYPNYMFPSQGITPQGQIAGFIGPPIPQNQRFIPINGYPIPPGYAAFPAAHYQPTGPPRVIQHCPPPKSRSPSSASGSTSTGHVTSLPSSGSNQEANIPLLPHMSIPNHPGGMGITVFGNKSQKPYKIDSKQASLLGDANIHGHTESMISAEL
- Experiment Notes: flow cytometry on PANC-1 cells, MFI (Median-APC) [middle panel, letter not given]
Reported values of EC50 (read off the curve) for individual entries

Binder	EC50 (read off the curve)
PR007416 (antibody, V domains shown, bivalent form (HCAb) variant of PR005340, no light chain) VH: EVQLVESGGGLVKPGGSLRLSCAASGFTFSDFYMSWIRQAPGKGLEWISYINTRGSPIGYADSVKGRFTISRDNAKNSLYLQMNSLRAEDTAIYYCARDIPSSSSDWVDLQFDYWGQGTLVTVSS	~0.7 nM
PR007415 (antibody, V domains shown, bivalent form (HCAb) variant of PR005340, no light chain) VH: EVQLVESGGGLVKPGGSLRLSCAASGFTFSDFYMSWIRQAPGKGLEWISYIDSSGRPLAYADSVKGRFTISRDNAKNSLYLQMNSLRAEDTAIYYCARDMPSSSSDWVDLQFDYWGQGTLVTVSS	~0.4 nM
PR007413 (antibody, V domains shown, bivalent form (HCAb) variant of PR005340, no light chain) VH: EVQLVESGGGLVKPGGSLRLSCAASGFTFSDFYMSWIRQAPGKGLEWISYINTRGSPIGYADSVKGRFTISRDNAKNSLYLQMNSLRAEDTAIYYCARDMPSSSSDWVDLQFDYWGQGTLVTVSS	~0.6 nM
PR007417 (antibody, V domains shown, bivalent form (HCAb) variant of PR005340, no light chain) VH: EVQLVESGGGLVKPGGSLRLSCAASGFTFSDFYMSWIRQAPGKGLEWISYISSSGSTRYYADSVKGRFTISRDNAKNSLYLQMNSLRAEDTAIYYCARDIPSSSSDWVDLQFDYWGQGTLVTVSS	~0.8 nM
PR005340 (antibody, human IgG1, V domains shown, HCAb (heavy chain-only, human IgG1 Fc), no light chain) VH: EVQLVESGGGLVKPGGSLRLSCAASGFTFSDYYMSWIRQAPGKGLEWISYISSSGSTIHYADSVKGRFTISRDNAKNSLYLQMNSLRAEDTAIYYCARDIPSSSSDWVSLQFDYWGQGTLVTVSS	~2 nM
